target: Cytochrome P450 3A4 (Homo sapiens); test: Cytochrome panel assay with activity outcomes; details: recombinant CYP, pro-luciferin dealkylation, luminescence, p450-cyp3a4; series mostly up to 57.1 µM; as to activity, negative = inhibition: % is scaled to controls: 0 for no effect and ±100 for the full control effect
About 5,100 (32%) of roughly 16,000 compounds were called active. Inconclusive results (about 25%) are left out. Some of the results follow.
measurementKind: activity, negative = inhibition

O=C1c2ccccc2C(=O)c2c1ccc(C(=O)O)c2-c1ccc2ccccc2c1: -2.24% [at 11.4 µM] (inactive)
O=C(O)CCC(=O)c1ccc2ccc3cccc4ccc1c2c34: -10.9% [at 11.4 µM] (inactive)
CC(=O)C1=C(NC(=O)c2ccc(F)cc2)CC2C1C2(C)C (stereo not given): 10% [at 2.29 µM] (inactive)

# activity, negative = inhibition of CCOC(=O)Cc1csc(NS(=O)(=O)c2ccccc2)n1 = 6.45% [at 2.29 µM] (inactive)

Short answer for C=CCn1c(SCC)nc2sc3c(c2c1=O)CCc1ccccc1-3 : activity, negative = inhibition was -8.25% [at 2.29 µM] (inactive)

Form: compound = Cc1ccnc(NC(=O)c2cccc(NC(=O)COc3ccccc3)c2)c1 ; activity, negative = inhibition = -4.8% [at 2.29 µM] (inactive)

// activity, negative = inhibition value for CC(C)c1ccc(NC(=O)N(CCc2nc3ccccc3[nH]2)C2CCCC2)cc1 : -18.7% [at 2.29 µM] (inactive)

// activity, negative = inhibition value for O=C1COC(c2ccccc2O)=NN1CCCN1CCCC1 : -10.8% [at 11.4 µM] (inactive)

Noted for Nc1cc2c(nc3c4ccccc4c(N)cc3[n+]2-c2cccc3ccccc23)c2ccccc12 (tested in a mixture with another compound) : its activity, negative = inhibition reads -29.5% [at 11.4 µM] (inactive)

For record COC(=O)c1ccccc1OCC(=O)N1CCN(c2ccc(OC)cc2)CC1 the listed activity, negative = inhibition is -29.6% [at 11.4 µM] (inactive)

====

molecular target: Cytochrome P450 3A4 (Homo sapiens) (UniProt P08684); experiment: Cytochrome panel assay with activity outcomes; settings: recombinant CYP, pro-luciferin dealkylation, luminescence, p450-cyp3a4; series mostly up to 57.1 µM
Sequence (P08684 whole entry, looked up): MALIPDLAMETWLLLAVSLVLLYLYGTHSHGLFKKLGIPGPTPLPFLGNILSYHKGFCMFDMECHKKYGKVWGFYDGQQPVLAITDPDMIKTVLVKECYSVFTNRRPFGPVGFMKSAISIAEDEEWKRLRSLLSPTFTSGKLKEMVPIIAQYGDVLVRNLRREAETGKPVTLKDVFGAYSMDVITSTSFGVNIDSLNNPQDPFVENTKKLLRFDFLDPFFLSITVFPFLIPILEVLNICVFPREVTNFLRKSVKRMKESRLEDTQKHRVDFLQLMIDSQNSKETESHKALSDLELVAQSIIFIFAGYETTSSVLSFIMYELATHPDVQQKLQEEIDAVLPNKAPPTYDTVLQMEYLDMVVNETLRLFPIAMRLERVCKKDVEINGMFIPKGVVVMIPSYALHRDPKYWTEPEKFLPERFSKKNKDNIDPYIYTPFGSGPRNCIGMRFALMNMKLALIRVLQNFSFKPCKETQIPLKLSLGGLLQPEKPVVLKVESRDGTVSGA
About 5,100 (32%) of roughly 16,000 compounds were called active. Another 25% or so got no clear call; they are omitted. Calls come from the whole dose curve; as a rule, active = well fitted curve in the direction sought with a large enough effect; inconclusive = small, poorly fitted or top-dose-only effect, or effect the other way; inactive = no such curve, though single readings can be large or run the other way. This is one part of the list.
Write down one outcome, taken from active, inactive

See these solved cases before continuing.
COc1ccc(-n2c(=O)c(-c3cccs3)nc3cnc(N4CCNCC4)nc32)cc1: active
COc1ccc(-n2c(=O)c(-c3ccc(Cl)cc3)nc3cnc(N4CCNCC4)nc32)cc1: inactive
CCCCN1C(=O)CN(CCc2ccccc2)C(=O)C1c1ccc(OC)cc1 (stereo unspecified): active
CCCS(=O)(=O)N1CCCC(C(=O)N2CCOCC2)C1 (stereo unspecified): inactive

What outcome does the record of this test show for CCCCCCCC/C=C\CCCCCCCC(=O)NCCc1ccc(O)c(O)c1 ?
active

Tell me the assay call for CCCCCCCCCCCCCCC/C=C\[C@H](O)[C@@H](NC(=O)CCCCCCCCCCCCC)OC (tested in a mixture with another compound) please.
inactive

State the result this test recorded for CCCCN1C(=O)CCC(C(=O)O)C1c1ccccc1 (stereo unspecified) .
inactive

Please share the test call associated with COc1ccc(C2C(=O)N(CCc3ccccc3)CC(=O)N2C2CCCC2)cc1 (stereo unspecified) .
active

Query: recorded result category for CC(=O)NCCc1ccc(O)c(O)c1 in this test
inactive

Dear all, I need the recorded test outcome for CCCCCCCCCCCCCCCC(=O)NC(C)C , thank you.
inactive

Could you check what this test reported for O=C(Nc1ccc2c(c1)OCCO2)C1CCN(C(=O)c2ccccc2)CC1 ?
inactive

====

biological target: Cytochrome P450 3A4 (Homo sapiens) (UniProt P08684); experiment: Cytochrome panel assay with activity outcomes; settings: recombinant CYP, pro-luciferin dealkylation, luminescence, p450-cyp3a4; series mostly up to 57.1 µM
The whole screen tested about 16,000 compounds, of which about 5,100 (32%) were called active. About 25% were inconclusive and are not listed. Calls follow the shape of the dose curve; as a rule, active = well fitted curve in the direction sought with a large enough effect; inconclusive = small, poorly fitted or top-dose-only effect, or effect the other way; inactive = no such curve, though single readings can be large or run the other way. This is one part of the list.
Could you please pick one outcome from this set? True (active), False (inactive)

CN(C)CC(O)COc1cccc(OCC(O)CN(C)C)c1 (configuration not stated): False

Called result for O=C(Oc1oc(-c2ccco2)nc1C=Nc1ccc(Cl)cc1)c1ccco1
False

Could you kindly confirm the outcome this assay logged for C[C@@H](C(=O)Nc1ccc2ccccc2c1)[C@H]1C[C@]1(C)[C@H](NP(=O)(c1ccccc1)c1ccccc1)c1ccccc1 ?
True

Tell me the recorded outcome of this test for CC(C)NC(=O)CC(=O)N/N=C/c1ccc(Br)cc1 .
False

Can you look up the reported call for CC(C)NC[C@@H](O)COc1ccc(COCCOC(C)C)cc1 for me?
False

GET /call?item= CN(C)c1oc(-c2ccccc2)nc1C#N returns the recorded outcome of this test.
False

// return assay outcome for C[C@@H](C(=O)Cc1ccc2ccccc2c1)[C@@H]1C[C@@]1(C)[C@@H](NP(=O)(c1ccccc1)c1ccccc1)c1ccccc1
True

What was the test verdict on C=CCSc1nc(C)cc(/C=C\c2ccccc2)c1C#N ?
True

Which outcome was assigned to COC(=O)c1cc(OC)c(OC)cc1NC(=O)CSc1ccc(C)cc1 in this test?
True

What is the recorded call for this compound in the test? O=C(O)/C=C\[C@H](O)c1ccc(Cl)cc1
False

====

biological target: Cytochrome P450 3A4 (Homo sapiens) (UniProt P08684); experiment: Cytochrome panel assay with activity outcomes; conditions: recombinant CYP, pro-luciferin dealkylation, luminescence, p450-cyp3a4; series mostly up to 57.1 µM
About 5,100 (32%) of roughly 16,000 compounds were called active. Roughly 25% stayed inconclusive and do not appear here. Calls come from the whole dose curve; as a rule, active = well fitted curve in the direction sought with a large enough effect; inconclusive = small, poorly fitted or top-dose-only effect, or effect the other way; inactive = no such curve, though single readings can be large or run the other way. This is one part of the list.
Return exactly one item of 1 (active), -1 (inactive)

Outcome? N#CCCn1c(=O)cnc2cnc(Oc3ccccc3)nc21
-1

Which result was noted for this molecule in the test: COc1ccc(Oc2ncc3nc(CCc4ccccc4)c(=O)n(CCC#N)c3n2)cc1
1

GET /call?item= CCN1CCN(S(=O)(=O)c2ccc(Cl)c(C(=O)Nc3nnc(CC(C)C)s3)c2)CC1 returns the recorded outcome of this test.
1

Record lookup: outcome of this test for N#CCCn1c(=O)c(CCc2ccccc2)nc2cnc(Oc3cccc(Cl)c3)nc21 ?
1

GET /call?item= COC(=O)c1cc(C#N)c(Oc2ccc(OC)cc2)nc1C returns the recorded outcome of this test.
1

Name the outcome recorded for CC(=O)c1cc(C#N)c(Oc2ccc(F)cc2)nc1C in the assay.
-1

====

target: Cytochrome P450 3A4 (Homo sapiens) (UniProt P08684); assay: Cytochrome panel assay with activity outcomes; conditions: recombinant CYP, pro-luciferin dealkylation, luminescence, p450-cyp3a4; series mostly up to 57.1 µM
Out of some 16,000 compounds screened, about 5,100 (32%) were called active. About 25% were inconclusive and are not listed. The list shows a part of the results.
measurementKind: AC50

N[C@@H](CS(=O)O)C(=O)O: inactive
CCCNC(=O)OC[C@@H]1O[C@H](CCO/N=C2\c3cc(OC)ccc3O[C@H](c3cccc(OC)c3)[C@H]2O)C=C[C@@H]1Oc1ccc(OC)cc1: 5.01 µM (active)
O=c1c(-c2ccccc2)nc2cncnc2n1-c1ccccc1: inactive
CN(C)c1ccc(/C=C2/C(=O)N(c3ccc([N+](=O)[O-])cc3)N=C2N2CCOCC2)cc1: inactive
COc1ccc(-n2c(=O)c(-c3cn(C)c4ccccc34)nc3cncnc32)cc1: 20 µM (active)
O=C(c1cc(C(F)(F)F)cc(C(F)(F)F)c1)N1CCC[C@@]2(CCN(c3ccncc3)C2)C1: 6.31 µM (active)

# molecule COc1ccc(O[C@H]2C=C[C@@H](c3ccccc3)O[C@H]2CO/N=C2/c3cc(OC)ccc3O[C@@H](c3cccc(OC)c3)[C@H]2O)cc1 ; its AC50 = 3.16 µM (active)

Documented AC50 of O=C(c1cc(C(F)(F)F)cc(C(F)(F)F)c1)N1CCC2(CC1)CN(c1ccccn1)C2 : inactive

Lab note: Cc1ccc(/C=C/c2ccc(=O)n(Cc3ccc(Cl)cc3Cl)n2)cc1 gave AC50 of inactive

What the record says about FC(F)(F)c1ccccc1-c1cncnc1NCc1cccnc1 : AC50 is 0.631 µM (active)

AC50 recorded for this molecule, NS(=O)(=O)c1cc2c(cc1Cl)N[C@@H](C(Cl)Cl)NS2(=O)=O , is inactive

AC50 in this record for CC1=N/C(=C\c2ccc([N+](=O)[O-])cc2)C(=O)N1c1ccc(Br)c(C)c1 : 2.82 µM (active)

So, O=C(c1ccncc1)N1CCC2(CC1)CCN(c1ccccn1)CC2 ? Its AC50 was inactive

Entry under test: C#CCCCO/N=C1/C[C@@H](O)[C@@H](O)[C@@H]2[C@@H]3C(=O)N([C@@H](C)c4ccccc4)C(=O)[C@H]3CC[C@@H]12 . Its AC50 was 3.98 µM (active)
